Tested on: KM mice
Experiment Summary: ED50 and LD50 test concerning anesthesia (sequential method) in mice
Type: in vivo
Measurement Context: caudal vein injection, 3 mg/ml solution, first test

Compound	Quantity Unit	Mouse LD50
CC(C)c1cccc(C(C)C)c1OC(=O)C(F)CC(=O)[O-].[Na+] (stereo not shown) [Compound F7]	mg/kg	59.8
CC(C)c1cccc(C(C)C)c1OC(=O)[C@@H](F)CCOP(=O)([O-])[O-].[Na+].[Na+] [Compound G2]	mg/kg	65.7
CC(C)c1cccc(C(C)C)c1OC(=O)C(F)CCC(=O)[O-].[Na+] (racemic) [Compound F1]	mg/kg	63.4
CC(C)c1cccc(C(C)C)c1OC(=O)[C@H](F)CCN(C)C.Cl [Compound E2]	mg/kg	71.8

---

System: Kunming mice
Experiment Summary: Latent period and persistent period of anesthesia in mice
Assay type: in vivo
Measurement Context: intravenous injection, dosage 2 * ED50, 3 mg/ml solution

Molecule	Latent Period (s)
CC(C)c1cccc(C(C)C)c1OC(=O)C(F)CCC(=O)[O-].[Na+] (racemic)	18.6
CC(C)c1cccc(C(C)C)c1OC(=O)C(F)CC(=O)[O-].[Na+] (centres unmarked)	20.2
CC(C)c1cccc(C(C)C)c1OC(=O)[C@@H](F)CCOP(=O)([O-])[O-].[Na+].[Na+]	16.3
CC(C)c1cccc(C(C)C)c1O [Propofol, reference compound]	8.4
CC(C)c1cccc(C(C)C)c1OC(=O)[C@H](F)CCN(C)C.Cl [Compound E2]	14.6

---

Measurement Context: rabbit plasma, 37° C., 15 s
Label t when dissociation percent is at or above 60%; anything below gets f.

Compound	Class Assignment
CC(C)c1cccc(C(C)C)c1OC(=O)[C@H](F)CCN1CCCC1.Cl [Compound E8]	t
CC(C)c1cccc(C(C)C)c1OC(=O)[C@@H](F)CCCN(C)Cc1ccccc1.Cl [Compound E5]	f
CC(C)c1cccc(C(C)C)c1OC(=O)C(F)CCN(C)C.Cl (racemic) [Compound E1]	t
CC(C)c1cccc(C(C)C)c1OC(=O)[C@@H](F)CCN1CC1.Cl [Compound E7]	t
CC(C)c1cccc(C(C)C)c1OC(=O)[C@H](F)CCN(C)C.Cl [Compound E2]	t
CC(C)c1cccc(C(C)C)c1OC(=O)[C@@H](CCN(C)C)C(F)(F)F.Cl [Compound E3]	f
CC(C)NCC(CF)C(=O)Oc1c(C(C)C)cccc1C(C)C.CS(=O)(=O)O (racemic) [Compound E6]	f

---

Measurement Context: rabbit plasma, 37° C., 30 s

Compound	dissociation percent
CC(C)c1cccc(C(C)C)c1OC(=O)C(F)CCN(C)C.Cl (racemic) [Compound E1]	85.5%
CC(C)c1cccc(C(C)C)c1OC(=O)[C@@H](CCN(C)C)C(F)(F)F.Cl [Compound E3]	67.2%
CC(C)c1cccc(C(C)C)c1OC(=O)[C@@H](F)CCN1CC1.Cl [Compound E7]	94.4%
CC(C)NCC(CF)C(=O)Oc1c(C(C)C)cccc1C(C)C.CS(=O)(=O)O (racemic) [Compound E6]	44.3%
CC(C)c1cccc(C(C)C)c1OC(=O)[C@H](F)CCN(C)C.Cl [Compound E2]	100%
CC(C)c1cccc(C(C)C)c1OC(=O)[C@@H](F)CCCN(C)Cc1ccccc1.Cl [Compound E5]	69.7%
CC(C)c1cccc(C(C)C)c1OC(=O)[C@H](F)CCN1CCCC1.Cl [Compound E8]	98.2%
CCN(C)CCC(F)C(=O)Oc1c(C(C)C)cccc1C(C)C.Cl (racemic) [Compound E4]	70.4%
